Experiment: self-splicing fitness, log relative to wild type (ln ratio); higher = more splicing; Tetrahymena group I intron in knt gene, E. coli kanamycin selection, DiMSum; sequences stand for … in CUCUCU…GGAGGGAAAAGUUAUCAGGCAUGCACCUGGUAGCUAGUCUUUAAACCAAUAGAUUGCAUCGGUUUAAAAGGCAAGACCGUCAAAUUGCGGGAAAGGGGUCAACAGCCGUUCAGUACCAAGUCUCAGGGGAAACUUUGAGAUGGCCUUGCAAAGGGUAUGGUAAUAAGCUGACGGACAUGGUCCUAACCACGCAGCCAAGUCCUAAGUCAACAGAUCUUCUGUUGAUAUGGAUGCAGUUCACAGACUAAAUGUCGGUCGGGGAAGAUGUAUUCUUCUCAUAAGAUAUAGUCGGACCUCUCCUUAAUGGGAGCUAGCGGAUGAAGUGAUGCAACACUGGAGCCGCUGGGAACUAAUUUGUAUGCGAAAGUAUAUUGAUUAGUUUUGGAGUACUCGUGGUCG;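 also: selection with 25 µg/mL kanamycin versus none on LB agar overnight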
Settings: 30 °C
Let's look at some sequences and their measured self-splicing fitness (ln).

Example results:
CCACAGCAAUAUUACGCCGC | -3.12
AGCCAGCAAUAUUACGGUCA | -0.0408
CCCAAGCAAUAUUACGUAUA | -2.91
UGUAAGCAAUAUUACGCUUG | -4.2
CACCAGCAAUAUUACGUGAA | -4.03
CGACAGCAAUAUUACGAACA | -2.16
UUAUAGCAAUAUUACGCUAU | -3.51
CAAAAGCAAUAUUACGAGUU | -3.02
UAGCAGCAAUAUUACGACCG | -0.887
UUAGAGCAAUAUUACGUGAA | -2.16

Enquiry: Quick one: self-splicing fitness (ln) of `CUACAGCAAUAUUACGGGGC` ?
Return: -2.95

Enquiry: Let us now turn to `ACCAAGCAAUAUUACGUUUU`
Return: -3.36

Enquiry: Now the same for `GUUUAGCAAUAUUACGGGCG`
Return: -0.544

Enquiry: Check `UAACAGCAAUAUUACGUCCG` too.
Return: -0.0665

Enquiry: Continue with `CUCGAGCAAUAUUACGUUGG`
Return: -3.48

Enquiry: Now this one: `GGUAAGCAAUAUUACGGUAU`
Return: -1.32

Enquiry: Request: `GGGUAGCAAUAUUACGUAAA`
Return: -0.962

---

Test: self-splicing fitness, log relative to wild type (ln ratio); higher = more splicing; Tetrahymena group I intron in knt gene, E. coli kanamycin selection, DiMSum; sequences stand for … in CUCUCU…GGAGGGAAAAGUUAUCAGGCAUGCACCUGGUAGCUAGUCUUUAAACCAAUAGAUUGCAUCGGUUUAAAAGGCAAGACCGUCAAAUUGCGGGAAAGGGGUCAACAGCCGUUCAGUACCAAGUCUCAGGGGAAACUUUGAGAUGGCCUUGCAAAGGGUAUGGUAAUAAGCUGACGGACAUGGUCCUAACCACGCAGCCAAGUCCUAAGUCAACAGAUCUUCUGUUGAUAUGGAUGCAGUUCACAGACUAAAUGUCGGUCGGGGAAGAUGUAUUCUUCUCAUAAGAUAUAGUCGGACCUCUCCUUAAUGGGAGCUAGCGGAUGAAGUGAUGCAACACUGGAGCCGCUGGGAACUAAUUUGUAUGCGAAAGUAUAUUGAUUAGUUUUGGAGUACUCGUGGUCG
Conditions: 37 °C
Respond with Yes for self-splicing fitness (ln) values of -0.8 and above, No for values below.

AUCUAGCAAUAUUACGACGU | Yes
UACAAGCAAUAUUACGUCAA | No
UGGGAGCAAUAUUACGGGCG | Yes

Enquiry: In plain terms: is recorded self-splicing fitness (ln) at least -0.8 for `GGCAAGCAAUAUUACGGUCA` ?
Return: Yes

Enquiry: Same thing, different sequence: `GAGGAGCAAUAUUACGGUUA`
Return: No

Enquiry: Subsequent entry: `GGCGAGCAAUAUUACGUGUU`
Return: No

Enquiry: Request: `AUAAAGCAAUAUUACGCUUU`
Return: No

Enquiry: Entry to check: `GGCGAGCAAUAUUACGCACA`
Return: Yes

Enquiry: Again, but for `ACCAAGCAAUAUUACGGGCU`
Return: No
